Subject Of Test: human recombinant Yes [a.a. 2–543 (end)] (Homo sapiens)
Construct: human recombinant Yes [a.a; 2–543 (end)]; purchased BPS Bioscience 40488
Experiment Notes: ADP-Glo kinase assay, inhibition rates of Yes phosphorylation activity (first and second screening)
Assay type: biochemical
Study Conditions: first screening; mean of n = 4 wells; 10 μmol L−1 compound
Procedure: All inhibitory assays of the phosphorylation activity of Yes were performed in accordance with the Promega Technical Manual for the ADP-Glo™ Kinase Assay (Fitchburg, WI, USA. Catalog number: V9102). The human recombinant Yes [a.a. […] The screening was conducted in three steps consisting of the first screening, the second screening, and the IC50 determination, as can be illustrated in Fig. 1b. First, we determined the inhibition rates of the 1,991 compounds. […]
# maps each entry to its First screening IR (inhibition rate)
Write the value in % as a bare number.

Compound: CC(C)(C)n1nc(C(=O)Nc2cccc(C3SCCCS3)c2)cc1C1CC1
Metric Name: First screening IR (inhibition rate)
Result Unit: %
Experimental Value: 2
//
Compound: Clc1ccc(/C=N/Nc2ncnc3c2cnn3-c2ccccc2)cc1
Metric Name: First screening IR (inhibition rate)
Result Unit: %
Experimental Value: 13
//
Compound: CSc1sc(NC(=O)c2n[nH]c(C(C)C)c2Br)nc1C
Metric Name: First screening IR (inhibition rate)
Result Unit: %
Experimental Value: 3

Report measured First screening IR (inhibition rate) on human recombinant Yes [a.a. 2–543 (end)] (Homo sapiens); entry: Cc1cc(COC(=O)c2cc(-c3ccc4c(c3)OCCO4)nc3c2cnn3C(C)C)on1
48

----------
Subject Of Test: human recombinant Yes [a.a. 2–543 (end)] (Homo sapiens)
Construct: human recombinant Yes [a.a; 2–543 (end)]; purchased BPS Bioscience 40488
Experiment Notes: ADP-Glo kinase assay, inhibition rates of Yes phosphorylation activity (first and second screening)
Type: biochemical
Study Conditions: first screening; mean of n = 4 wells; 10 μmol L−1 compound
Experimental: All inhibitory assays of the phosphorylation activity of Yes were performed in accordance with the Promega Technical Manual for the ADP-Glo™ Kinase Assay (Fitchburg, WI, USA. Catalog number: V9102). The human recombinant Yes [a.a. […] The screening was conducted in three steps consisting of the first screening, the second screening, and the IC50 determination, as can be illustrated in Fig. 1b. First, we determined the inhibition rates of the 1,991 compounds. […]
Metric Name: First screening IR (inhibition rate) (%)
Entry rule: numbers only, all in %.

Compound: O=C(Nc1ccccc1)C1CCN(C(=O)C2CCOCC2)CC1
First screening IR (inhibition rate) [%]: 1

Compound: COc1ccccc1NC(=O)c1ccc(NC(=O)COc2ccc(-c3ccccc3)cc2)cc1
First screening IR (inhibition rate) [%]: 3

Compound: CC(C)S(=O)(=O)CCS(=O)(=O)C(C)c1ccc(F)cc1 (stereo not drawn)
First screening IR (inhibition rate) [%]: 12

Compound: CCCOc1ccc(C2/C(=C(\O)c3ccc(F)cc3)C(=O)C(=O)N2CCCn2ccnc2)cc1OC (stereo not drawn)
First screening IR (inhibition rate) [%]: 10

Compound: Cc1nccn1-c1cncc(NCc2cc(-c3ccccc3)on2)n1
First screening IR (inhibition rate) [%]: 19

Report the value of First screening IR (inhibition rate) obtained on human recombinant Yes [a.a. 2–543 (end)] (Homo sapiens) for Cc1cc(C)c2c(c1)C(O)(CC(=O)c1ccccc1)C(=O)N2 (stereo not drawn) .
0

Specify First screening IR (inhibition rate) for Cc1cccc(C(C)C)c1NC(=O)CN1CCCCC1Cc1ccccc1 (stereo not drawn) , system human recombinant Yes [a.a. 2–543 (end)] (Homo sapiens).
-4

Look up and report First screening IR (inhibition rate), with human recombinant Yes [a.a. 2–543 (end)] (Homo sapiens) as system, for Cc1nn(Cc2ccc(F)cc2)c2sc(C(=O)Nc3ccc(N4CCOCC4)cc3N3CCOCC3)cc12
3

Quote First screening IR (inhibition rate) with test system human recombinant Yes [a.a. 2–543 (end)] (Homo sapiens) for CC(C)n1ncc2c(C(=O)O)cc(-c3ccccc3F)nc21
-8

----------
Subject Of Test: human recombinant Yes [a.a. 2–543 (end)] (Homo sapiens, UniProt P07947)
Construct: human recombinant Yes [a.a; 2–543 (end)]; purchased BPS Bioscience 40488
Sequence (P07947 2-543): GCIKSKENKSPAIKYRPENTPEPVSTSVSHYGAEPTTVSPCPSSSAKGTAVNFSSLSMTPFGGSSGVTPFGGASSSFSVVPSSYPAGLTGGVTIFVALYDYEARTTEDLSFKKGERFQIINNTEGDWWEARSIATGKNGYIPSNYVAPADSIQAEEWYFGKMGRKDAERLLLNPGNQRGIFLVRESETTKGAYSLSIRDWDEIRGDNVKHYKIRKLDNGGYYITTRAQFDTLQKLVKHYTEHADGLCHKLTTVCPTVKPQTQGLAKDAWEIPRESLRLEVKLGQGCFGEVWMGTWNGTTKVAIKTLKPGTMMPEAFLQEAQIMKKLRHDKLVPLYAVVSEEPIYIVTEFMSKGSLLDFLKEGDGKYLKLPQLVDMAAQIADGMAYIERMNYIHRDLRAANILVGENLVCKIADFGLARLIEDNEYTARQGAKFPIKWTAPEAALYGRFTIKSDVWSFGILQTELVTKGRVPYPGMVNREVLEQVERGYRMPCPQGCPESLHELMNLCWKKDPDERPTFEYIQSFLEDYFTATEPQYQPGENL
Experiment Notes: ADP-Glo kinase assay, inhibition rates of Yes phosphorylation activity (first and second screening)
Type: biochemical
Study Conditions: first screening; mean of n = 4 wells; 10 μmol L−1 compound
Metric Name: First screening IR (inhibition rate) (%)
Supply the numeric figure in %, leaving out any unit text.

Use the examples below as a reference point.
Compound: COc1ccc(/C=C2/CCCc3c2nc2ccccc2c3C(=O)O)cc1
First screening IR (inhibition rate) [%]: 9

Compound: CCOC(=O)c1c(-c2ccc(C)cc2)csc1Nc1nc2ccccc2nc1N1CCN(CC)CC1
First screening IR (inhibition rate) [%]: -3

Compound: Cc1ccc(N(C(=O)c2ccc(C(C)(C)C)cc2)C2C=CS(=O)(=O)C2)cc1 (stereo not shown)
First screening IR (inhibition rate) [%]: 4

Alright, here's another compound for you.
Tell me First screening IR (inhibition rate) reported for CCN(CCC#N)S(=O)(=O)c1cccc(S(C)(=O)=O)c1
-6

----------
Subject Of Test: human recombinant Yes [a.a. 2–543 (end)] (Homo sapiens, UniProt P07947)
Construct: human recombinant Yes [a.a; 2–543 (end)]; purchased BPS Bioscience 40488
Experiment Notes: ADP-Glo kinase assay, inhibition rates of Yes phosphorylation activity (first and second screening)
Type: biochemical
Study Conditions: first screening; mean of n = 4 wells; 10 μmol L−1 compound
Metric Name: First screening IR (inhibition rate) (%)
Reply numerically in %, unit not repeated.

Worked cases, First screening IR (inhibition rate) given:
Compound: O=C1CCc2cc(OC(=O)c3cn(-c4ccccc4)nc3-c3cccs3)ccc2N1
Metric Name: First screening IR (inhibition rate)
Experimental Value: 63
//
Compound: CC(NC(=O)C1=NN(c2ccc(F)cc2)C(C(N)=O)C1)c1ccc(F)cc1F (centres unmarked)
Metric Name: First screening IR (inhibition rate)
Experimental Value: 6
//
Compound: NS(=O)(=O)c1cccc(S(=O)(=O)N2CCCCC2)c1
Metric Name: First screening IR (inhibition rate)
Experimental Value: -8

Note First screening IR (inhibition rate) for the compound shown: c1csc(-c2noc(CSc3nnc(C4CC4)n3C3CC3)n2)c1
4

Identify measured First screening IR (inhibition rate) corresponding to Cc1cccc(N=C2NN=C(c3ccc(CCNS(C)(=O)=O)s3)CS2)c1C
37

Please give measured First screening IR (inhibition rate) of the following entry: COC(=O)c1sc2ncc(/C=C/C(=O)c3cccnc3)cc2c1C
66

Please report the measured First screening IR (inhibition rate) for O=S1(=O)C=CCC1
9

Give me measured First screening IR (inhibition rate), please, for this compound: COc1ccc(CN2C(=O)c3ccccc3C2=O)cc1C(=O)Nc1ccc(N2CCN(C)CC2)cc1C
17

----------
Subject Of Test: human recombinant Yes [a.a. 2–543 (end)] (Homo sapiens, UniProt P07947)
Construct: human recombinant Yes [a.a; 2–543 (end)]; purchased BPS Bioscience 40488
Experiment Notes: ADP-Glo kinase assay, inhibition rates of Yes phosphorylation activity (first and second screening)
Type: biochemical
Study Conditions: first screening; mean of n = 4 wells; 10 μmol L−1 compound
Recorded measurements of First screening IR (inhibition rate), one per entry
Reply with just the number (in %).

Before answering, review these 6 worked examples.
Compound: c1nc(N2CCCC2c2ccsc2)c2[nH]cnc2n1 (centres unmarked)
First screening IR (inhibition rate), %: 12
--
Compound: CCC(Sc1nc2ccccc2c2nc(CCN3CCCCC3)nn12)C(=O)Nc1ccc2c(c1)OCO2 (centres unmarked)
First screening IR (inhibition rate), %: -8
--
Compound: CCn1cnc2c1c(=O)n(CC(=O)N1CCC(Cc3ccccc3)CC1)c(=O)n2Cc1ccccc1
First screening IR (inhibition rate), %: 9
--
Compound: O=S(=O)(Nc1cnc2ccccc2c1)c1ccc(Cl)c(Cl)c1
First screening IR (inhibition rate), %: 3
--
Compound: C#CCN(C)S(=O)(=O)c1cc(S(C)(=O)=O)sc1Cl
First screening IR (inhibition rate), %: -18
--
Compound: NS(=O)(=O)C1CC=CCC1 (centres unmarked)
First screening IR (inhibition rate), %: 1

Given COc1c(CNCc2ccc(C(=O)N(C)C)cc2)c(C)nn1C , respond with its First screening IR (inhibition rate).
27

Look up First screening IR (inhibition rate) of COc1ccc2cc(-c3cc(C(=O)OCC(=O)Nc4cccc(C)c4)c4ccccc4n3)ccc2c1 and report it.
-12

----------
Subject Of Test: human recombinant Yes [a.a. 2–543 (end)] (Homo sapiens, UniProt P07947)
Construct: human recombinant Yes [a.a; 2–543 (end)]; purchased BPS Bioscience 40488
Experiment Notes: ADP-Glo kinase assay, inhibition rates of Yes phosphorylation activity (first and second screening)
Assay type: biochemical
Study Conditions: first screening; mean of n = 4 wells; 10 μmol L−1 compound
Method: All inhibitory assays of the phosphorylation activity of Yes were performed in accordance with the Promega Technical Manual for the ADP-Glo™ Kinase Assay (Fitchburg, WI, USA. Catalog number: V9102). The human recombinant Yes [a.a. […] The screening was conducted in three steps consisting of the first screening, the second screening, and the IC50 determination, as can be illustrated in Fig. 1b. First, we determined the inhibition rates of the 1,991 compounds. […]
Reported First screening IR (inhibition rate) by item:
Provide the reading as a plain figure in %.

Molecule: NC(=O)c1cc(NC(=O)c2cc(-c3ccccc3Cl)n[nH]2)ccc1F
Experimental Value: -18

State its First screening IR (inhibition rate) for this molecule: COc1cc(/C=N/Nc2ncnc3scc(-c4ccccc4)c23)ccc1O
13

Fill in reported First screening IR (inhibition rate) for this entry: COc1ccc(S(=O)(=O)N(C)C2CCS(=O)(=O)C2)cc1 (centres unmarked)
2

Given Cc1ccc(-c2noc(CN3CCN(Cc4nc5ccccc5c(=O)n4Cc4ccco4)CC3)n2)cc1 , respond with its First screening IR (inhibition rate).
3

Origin of the recorded values: paper PMC5607274
